Tgt: Tyrosine-protein kinase SYK (Homo sapiens) (UniProt P43405)
Applied Conditions: at 0.1 µM;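 also: reported percentages are mean inhibition values for SYK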
Measurement Type: inhibition

# annotated cases, reported inhibition shown
Query Smiles: NS(=O)(=O)c1ccc(Nc2cc(-c3cccc(O)c3)n[nH]2)cc1
inhibition: -3.9%

Query Smiles: Cc1ccc2c(c1)/C(=N/Nc1ccc(S(N)(=O)=O)cc1)C(=O)N2
inhibition: 2.17%

Query Smiles: Cc1cc(Cl)cc2c1NC(=O)C2=NNc1ccc(S(N)(=O)=O)cc1
inhibition: -4.26%

Next, consider the following compound.
Documented inhibition of `Cc1ccc(Nc2ccnc(Nc3cccc(C(N)=O)c3)n2)cc1O` : -7.65%
